Molecular target: GNAI2; further: test concentration or dose not given here
Settings: ASO
These antisense oligonucleotides have a phosphorothioate backbone; sugars and methylation of C are not fully specified.
Please provide measured remaining target (mRNA or protein) (fraction of control) for the entries that follow.
Lab note: record just the number, no unit beside it.

Prompt: Item AGCTGGTATTCCCTTGAG with GNAI2 - remaining target (mRNA or protein) (fraction of control)?
Response: 0.55

Prompt: Try this sequence too: GGGAAGCAGATGGTCAGG
Response: 0.86

Prompt: Next: TGAGCAGGTGGACTGTGG
Response: 0.31

Prompt: Request: CCCGCCCGACCCACCCGA
Response: 0.62

Prompt: Now try CTGCTTGACGATGGTGCT .
Response: 0.6

Prompt: // same read-out, input: AAAGAGAGGAAAGAGGAG
Response: 0.99

Prompt: Moving on to CGCAGAAGATGATGGCTG
Response: 0.67

Prompt: Could you do the same for CTGTGACGCCCTCAAAGC , please?
Response: 0.51

Prompt: Please do the same for GGGTCCGTAGCACATCTT as well.
Response: 0.47

Prompt: Also GCCCCGCTGCCCCTCAGA ?
Response: 0.65

Prompt: Same question for AGACAAGGGCAGGCTTCA please.
Response: 0.37

Prompt: Record: GGTTCATCTCCTCGTCCT
Response: 0.64

Prompt: Input GCGCTTATTCAGGTCCTC
Response: 0.33

Prompt: // same read-out, input: TGAAGTGTGTCTCCACGA
Response: 0.61

Prompt: Now give it for CGCCCTCAAAGCAGTGGA too.
Response: 0.61

Prompt: Here is the next sequence: AGTCCTTCAGGTTGTTCT
Response: 0.54

Prompt: Also need GAACATAAGCCAGAAGGG , thanks.
Response: 0.94
